Reference source for all entries: ChEMBL document CHEMBL1146801

target: UniProt P00734
measured.attribute: log10 of Ki (log10 of the value in nM)
Hey, these are logged values: log10 of Ki, nM being the unit before logging.

// worked examples, log10 of Ki included
{"input.smiles": "N=C(N)NOCCCOc1cc(Cl)cc(C(=O)N(Cc2ccoc2)CC2CC2)c1", "measured.attribute": "log10 of Ki", "reported.result": 1.23}
{"input.smiles": "Cc1cc(OCCCON=C(N)N)cc(C(=O)N(CCC(C)C)Cc2ccoc2)c1", "measured.attribute": "log10 of Ki", "reported.result": 0.85}
{"input.smiles": "Cc1cc(OCCCONC(=N)N)cc(C(=O)N(Cc2ccoc2)CC2CC2)c1", "measured.attribute": "log10 of Ki", "reported.result": 1.04}
{"input.smiles": "CCCN(CC1CC1)C(=O)c1cc(Cl)cc(OCCCONC(=N)N)c1", "measured.attribute": "log10 of Ki", "reported.result": 1.36}
{"input.smiles": "CCN(Cc1ccncc1)C(=O)c1cc(Cl)cc(OCCCONC(=N)N)c1", "measured.attribute": "log10 of Ki", "reported.result": 3.20}

# log10 of Ki measured on UniProt P00734 for item `N=C(N)NOCCCOc1cc(Cl)cc(C(=O)N(CCc2cccnc2)CC2CC2)c1` = 1.67

# log10 of Ki measured on UniProt P00734 for item `N=C(N)NOCCCOc1cc(Cl)cc(C(=O)N2CCC(Cc3ccccc3)CC2)c1` = 3.18

# log10 of Ki measured on UniProt P00734 for item `N=C(N)NOCCCOc1cc(Cl)cc(C(=O)N2CCN(c3ccccc3)CC2)c1` = 3.46

# log10 of Ki measured on UniProt P00734 for item `N=C(N)NOCCCOc1cc(Cl)cc(C(=O)N2CCc3ccccc3C2)c1` = 2.23

# log10 of Ki measured on UniProt P00734 for item `CCN(C(=O)c1cc(C)cc(OCCCONC(=N)N)c1)C1CCCCC1` = 0.78

====

assay: Cmax on p.o. administration of 10 mg/kg was measured in dog; type: ADME, organism-based, Canis lupus familiaris; set-up: dose 10 mg/kg, route oral; conditions: in vivo, po
measured.attribute: Cmax (µM)
Field: numeric (µM). Do not append units.

The recorded Cmax for `CCCN(Cc1ccoc1)C(=O)c1cc(C)cc(OCC2(CON=C(N)N)CC2)c1` is 5.8

The recorded Cmax for `Cc1cc(OCC2(CONC(=N)N)CC2)cc(C(=O)N(Cc2ccoc2)CC2CC2)c1` is 4.1

The recorded Cmax for `Cc1cc(OCCCONC(=N)N)cc(C(=O)N(Cc2ccoc2)CC2CC2)c1` is 5.1

The recorded Cmax for `C=CCN(C(=O)c1cc(C)cc(OCCCONC(=N)N)c1)C1CCCC1` is 3.7

The recorded Cmax for `CCCN(Cc1ccoc1)C(=O)c1cc(C)cc(OCCCONC(=N)N)c1` is 4.5

====

assay: Clearance on i.v. administration of 2 mg/kg was measured in dog; assay type: ADME, organism-based, Canis lupus familiaris; parameters: dose 2 mg/kg, route intravenous; settings: in vivo, iv
Items are presented alongside their recorded clearance.
Field: numeric (mL/min/kg). Do not append units.

{"input.smiles": "CCCN(Cc1ccoc1)C(=O)c1cc(C)cc(OCC2(CON=C(N)N)CC2)c1", "reported.result": 4.2}
{"input.smiles": "CCCN(Cc1ccoc1)C(=O)c1cc(C)cc(OCCCONC(=N)N)c1", "reported.result": 10.1}
{"input.smiles": "Cc1cc(OCC2(CONC(=N)N)CC2)cc(C(=O)N(Cc2ccoc2)CC2CC2)c1", "reported.result": 5.7}
{"input.smiles": "C=CCN(C(=O)c1cc(C)cc(OCCCONC(=N)N)c1)C1CCCC1", "reported.result": 11.2}

// moving on: another record for clearance
The recorded clearance for `Cc1cc(OCCCONC(=N)N)cc(C(=O)N(Cc2ccoc2)CC2CC2)c1` is 7.8
